# target: P. falciparum apicoplast DNA polymerase (Pf-apPOL) (Plasmodium falciparum)
# Sequence (Q8ILY1 entry or part of it): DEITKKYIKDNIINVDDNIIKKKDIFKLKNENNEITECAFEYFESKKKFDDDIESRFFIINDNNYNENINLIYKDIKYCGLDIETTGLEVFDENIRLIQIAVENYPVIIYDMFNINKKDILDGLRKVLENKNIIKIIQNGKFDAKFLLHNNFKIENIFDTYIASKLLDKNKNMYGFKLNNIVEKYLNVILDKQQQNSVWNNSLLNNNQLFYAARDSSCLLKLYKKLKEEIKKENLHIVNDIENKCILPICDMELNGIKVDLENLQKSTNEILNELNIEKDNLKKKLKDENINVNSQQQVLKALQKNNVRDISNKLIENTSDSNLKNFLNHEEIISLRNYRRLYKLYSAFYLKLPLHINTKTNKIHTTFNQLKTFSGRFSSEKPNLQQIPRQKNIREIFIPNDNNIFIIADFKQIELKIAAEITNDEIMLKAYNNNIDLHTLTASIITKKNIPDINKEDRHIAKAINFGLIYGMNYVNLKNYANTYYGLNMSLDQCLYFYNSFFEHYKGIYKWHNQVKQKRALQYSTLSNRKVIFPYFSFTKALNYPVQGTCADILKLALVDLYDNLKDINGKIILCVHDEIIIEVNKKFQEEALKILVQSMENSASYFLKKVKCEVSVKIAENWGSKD
# assayExplanation: Fluorescence-based high-throughput DNA polymerase assay (molecular beacon), primary screen and dose-response
# Format: biochemical
# testSettings: DRC-1; 90'; concentration 10
Form field: % inhibition Apol 90' (one value per entry).

# annotated cases, reported % inhibition Apol 90' shown
molecule: CC(NC(=O)Cc1cc(=O)[nH]c(SCc2cccc(Cl)c2)n1)c1ccccc1 (centres unmarked)
% inhibition Apol 90': 1.923%

molecule: Cc1cc(C)c(O)c(/N=C/c2cc([N+](=O)[O-])cc(Br)c2O)c1
% inhibition Apol 90': 2.689%

molecule: O=C(Nc1cccc(Cl)c1)Nc1nnc(-c2ccncc2)s1
% inhibition Apol 90': 12.9186%

molecule: COc1cc(/C=C2\S/C(=N/C(C)=O)NC2=O)cc(Br)c1OCC(=O)O
% inhibition Apol 90': 5.395%

molecule: O=C(NNC(=O)C(F)(F)Sc1ccccc1)c1ccsc1 [Molecule 68, O=C(C(Sc1ccccc1)(F)F)NNC(=O)c1cscc1]
% inhibition Apol 90': 13.2706%

molecule: O=c1cc(CN2CCCCC2)c2cc3c(cc2o1)OCO3
% inhibition Apol 90': 24.7772%

molecule: Cc1ccc(NC(=O)Cn2ccc3c(=O)[nH]ccc32)cc1F [Molecule 48, O=C(Cn1ccc2c1cc[nH]c2=O)Nc1ccc(c(c1)F)C]
% inhibition Apol 90': 21.1063%

# context switch: different molecule, same % inhibition Apol 90'
Hello, please tell me recorded % inhibition Apol 90' for this one: COc1ccc(NC(=O)Cn2ccc3c(=O)[nH]ccc32)cc1Cl [Molecule 10, COc1ccc(cc1Cl)NC(=O)Cn1ccc2c1cc[nH]c2=O]
48.8726%
